Each recorded value in this set is attributed to patent US6509328B1.

melting point for assorted compounds

Here is how some compounds turned out for melting point.
| structure_as_smiles | melting point |
| --- | --- |
| N#Cc1cccc(C2=Nc3ccc(-c4cccc5ccccc45)cc3NC(=O)C2)c1 | 240 to 245 °C (dec.) |
| CC(C)(C)C(=O)N1CC=C(C#Cc2ccc3c(c2)NC(=O)CC(c2cccc(C#N)c2)=N3)CC1 | 219 °C |

Now let's try a different one.
Report melting point for `N#Cc1ccc(C2=Nc3ccc(-c4ccccc4F)cc3NC(=O)C2)s1` please.
> 250 °C

* * *

The reader will find reported melting point values listed item by item below.

| molecule | melting point |
| --- | --- |
| Cc1cn(-c2nc(C3=Nc4ccc(-c5ccccc5F)cc4NC(=O)C3)cs2)cn1 [Example 106] | 229 °C |
| O=C1CC(c2cccc(-n3cncn3)c2)=Nc2ccc(C#Cc3ccc(F)cc3)cc2N1 [Example 62] | 217 to 218 °C |
| N#Cc1cccc(C2=Nc3ccc(-c4cccnc4)cc3NC(=O)C2)c1 [Example 40] | 210 to 214 °C (dec.) |
| COc1ccc(-c2ccc3c(c2)NC(=O)CC(c2cccc(C#N)c2)=N3)cc1 [Example 6] | 236 to 237 °C (dec.) |

Moving on to the next molecule.
Look at this molecule and give its reported melting point. O=C1CC(c2cccc([N+](=O)[O-])c2)=Nc2ccc(C#Cc3ccccc3)cc2N1 [Example 56]
228 to 229 °C
